Recorded PGE2 EC50 with compound by entry
target: Prostaglandin E2 receptor EP2 subtype (Homo sapiens) (UniProt P43116); experiment: EP2 receptor modulators, dose response, cell-based, human EP2, PGE2 EC50 shift (AID 1421); details: EP2-expressing cells, PGE2 EC50 shift by compound; measured here: PGE2 EC50 at 6.7 uM compound
Sequence (P43116 whole entry, looked up): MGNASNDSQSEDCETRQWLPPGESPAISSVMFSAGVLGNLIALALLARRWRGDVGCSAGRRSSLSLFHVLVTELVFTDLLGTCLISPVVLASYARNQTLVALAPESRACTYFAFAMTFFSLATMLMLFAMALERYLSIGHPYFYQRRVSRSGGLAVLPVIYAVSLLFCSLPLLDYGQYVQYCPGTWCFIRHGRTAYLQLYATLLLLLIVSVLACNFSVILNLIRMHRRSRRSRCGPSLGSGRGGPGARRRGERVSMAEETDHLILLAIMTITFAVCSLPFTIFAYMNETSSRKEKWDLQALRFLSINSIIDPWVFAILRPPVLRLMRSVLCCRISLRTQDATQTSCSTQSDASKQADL
Just so you know, I need the unit written after the number.

CCOc1cc(S(=O)(=O)NCCc2cccc(C)c2)c(OCC)cc1-n1cnnn1	1.21 nM
CC(C)Oc1ccc(/C=C(/NC(=O)c2ccccc2)C(=O)NCCC(=O)O)cc1	0.92 nM
Cc1nc(N2N=C(c3ccc(Cl)cc3)CC2c2ccco2)sc1C(=O)N(C)C (configuration not stated)	2.73 nM

Prostaglandin E2 receptor EP2 subtype (Homo sapiens) (UniProt P43116) PGE2 EC50 with compound of `Cc1ccc(C(=O)Nc2ccccc2C(=O)NCc2ccccc2)cc1` is 1.42 nM

Prostaglandin E2 receptor EP2 subtype (Homo sapiens) (UniProt P43116) PGE2 EC50 with compound of `COc1ccc(OC)c(C(=O)c2coc3ccc(OCC(=O)O)cc23)c1` is 0.98 nM

Prostaglandin E2 receptor EP2 subtype (Homo sapiens) (UniProt P43116) PGE2 EC50 with compound of O=S(Cc1cc(Sc2ccccc2)nc(-c2ccccc2)n1)c1ccccc1 (configuration not stated) is 1.15 nM
